Where do these numbers come from? They come from paper PMC7251097.

Listing of entries alongside the reported Plate 1 (% inhibition).
target: His6-AspH315–758 (human aspartate/asparagine-β-hydroxylase, AspH) (Homo sapiens, UniProt Q12797); construct: N-Terminally His6-tagged human AspH315–758 (His6-AspH315–758) was produced in E. coli BL21 (DE3) cells; made in house; host or cells: E. coli BL21 (DE3), pET-28a(+) vector; assay: SPE-MS AspH inhibition assay (LOPAC screen at fixed 20 μM and IC50 dose-response), hydroxylation of cyclic peptide hFX-CP101–119; type: biochemical; settings: LOPAC compound at fixed 20 uM; plate 1, normalised to DMSO and 2,4-PDCA controls
Sequence (Q12797 315-758): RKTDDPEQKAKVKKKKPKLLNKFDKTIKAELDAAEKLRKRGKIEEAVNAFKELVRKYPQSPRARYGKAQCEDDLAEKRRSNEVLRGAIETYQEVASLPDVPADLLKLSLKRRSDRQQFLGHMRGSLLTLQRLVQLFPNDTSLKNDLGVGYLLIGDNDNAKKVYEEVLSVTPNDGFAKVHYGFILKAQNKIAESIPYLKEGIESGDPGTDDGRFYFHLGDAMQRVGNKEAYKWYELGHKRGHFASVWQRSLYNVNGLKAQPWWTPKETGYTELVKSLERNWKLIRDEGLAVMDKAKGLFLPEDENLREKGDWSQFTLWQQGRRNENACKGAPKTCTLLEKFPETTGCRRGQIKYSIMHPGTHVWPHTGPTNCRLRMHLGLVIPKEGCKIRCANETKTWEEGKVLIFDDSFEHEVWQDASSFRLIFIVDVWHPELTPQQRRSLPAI
Structures can show the parent of a compound that is named as a salt.
Dear colleague, please return just the value in %, with no unit written.

molecule	unitInfo	reported
CCN(CC)CCNC(=O)c1ccc(NC(C)=O)cc1.Cl [N-Acetylprocainamide hydrochloride]	%	3.70

Ask: Find the recorded Plate 1 (% inhibition) belonging to CC(C)(CO)Cc1cc(C(C)(C)C)c(O)c(C(C)(C)C)c1 and report it.
Reply: -11.33

Ask: Try C[C@@H](O)[C@H]1C(=O)N2C(C(=O)O)=C(SCCN=CN)C[C@H]12 [Imipenem monohydrate] next.
Reply: 6.01

Ask: Try CN1CCC(=C2c3ccccc3C=Cc3ccccc32)CC1 [Cyproheptadine hydrochloride] next.
Reply: -17.18

Ask: Try Nc1nc2c(nc(Br)n2[C@@H]2O[C@@H]3COP(=O)([O-])O[C@H]3[C@H]2O)c(=O)[nH]1.[Na+] [8-Bromo-cGMP sodium] next.
Reply: 5.25

Ask: Try CN(C(=O)CCCOc1ccc2[nH]c(=O)ccc2c1)C1CCCCC1 [Cilostamide] next.
Reply: -8.28

* * *

biological target: His6-AspH315–758 (human aspartate/asparagine-β-hydroxylase, AspH) (Homo sapiens, UniProt Q12797); construct: N-Terminally His6-tagged human AspH315–758 (His6-AspH315–758) was produced in E. coli BL21 (DE3) cells; made in house; host or cells: E. coli BL21 (DE3), pET-28a(+) vector; test: SPE-MS AspH inhibition assay (LOPAC screen at fixed 20 μM and IC50 dose-response), hydroxylation of cyclic peptide hFX-CP101–119; type: biochemical; conditions: LOPAC Plate 4, compound at 20 uM, substrate conversion
Where a name gives a salt, the structure may show the parent alone.
testReadout: % conversion
Answer shape: numeric part, then the unit.

Please review the entries below; each comes with its answer.
molecule	% conversion
COc1ccccc1OCC(O)CN1CCN(CC(=O)Nc2c(C)cccc2C)CC1 (centres unmarked) [Ranolazine dihydrochloride]	41.52%
CCN1CCCC1CNC(=O)c1cc(S(N)(=O)=O)ccc1OC (racemic) [(±)-Sulpiride]	36.54%
CN(C)c1ccc(/C=C2\C(=O)Nc3ccccc32)cc1	35.77%
CCN(CC)CCCN(c1ccccc1)C1Cc2ccccc2C1 [Aprindine hydrochloride]	34.60%
C[N+]1(C)CCC(OC(=O)C(c2ccccc2)c2ccccc2)CC1.[I-]	37.71%
N[C@@H](Cc1c[nH]c2ccccc12)C(=O)O	29.06%
COc1ccc(/C=C/c2nc(NCCCN(C)C)c3ccccc3n2)cc1.Cl.Cl.O [CP-31398 dihydrochloride hydrate]	42.00%

Here is another molecule to look at.
Ask: Find the recorded % conversion belonging to O=C(c1ccc(F)cc1)C1CCN(CCn2c(=O)[nH]c3ccccc3c2=O)CC1 [Ketanserin tartrate] and report it.
Reply: 19.47%

* * *

molecular target: His6-AspH315–758 (human aspartate/asparagine-β-hydroxylase, AspH) (Homo sapiens, UniProt Q12797); construct: N-Terminally His6-tagged human AspH315–758 (His6-AspH315–758) was produced in E. coli BL21 (DE3) cells; made in house; host or cells: E. coli BL21 (DE3), pET-28a(+) vector; experiment: SPE-MS AspH inhibition assay (LOPAC screen at fixed 20 μM and IC50 dose-response), hydroxylation of cyclic peptide hFX-CP101–119; assay type: biochemical; details: 50 nM His6-AspH315–758, 1.0 μM hFX-CP101–119, 3 μM 2OG, 2 μM Fe(II), 50 mM HEPES pH 7.5, 20 °C; mean ± SD, n = 2 (2,4-PDCA n = 10); read-out: IC50
Listing of entries alongside the reported pIC50.
Worth noting: pIC50 values are minus log10 of concentrations stated in mol/L.

Please review the entries below; each comes with its answer.
compound	pIC50
Clc1ccc(N/N=C(\c2ccccc2)c2ccccn2)nc1 [JIB-04, reference compound]	5.37
NC(CO)C(=O)NNCc1ccc(O)c(O)c1O (stereo not drawn) [benserazide, reference compound]	5.46
Cc1cc(C2CCCCC2)n(O)c(=O)c1 [Ciclopirox olamine, reference compound]	5.36
O=C(O)/C=C/c1ccc(O)c(O)c1 [caffeic acid, reference compound]	6.62
C=CCc1cccc(/C=N/NC(=O)CN2CCN(Cc3ccccc3)CC2)c1O [PAC-1, reference compound]	5.45

Ask: Find the recorded pIC50 belonging to O=c1c2ccccc2[se]n1-c1ccccc1 [Ebselen, ebselen, reference compound] and report it.
Reply: 6.92

Ask: Try CC(C)c1ccc2c(c1)c(SC(C)(C)C)c(CC(C)(C)C(=O)O)n2Cc1ccc(Cl)cc1 [MK-886, reference compound] next.
Reply: 5.07

Ask: Try O=C(O)CCNc1cc(N2CCc3ccccc3CC2)nc(-c2ccccn2)n1 [GSK-J1, reference compound] next.
Reply: 4.89

* * *

molecular target: His6-AspH315–758 (human aspartate/asparagine-β-hydroxylase, AspH) (Homo sapiens, UniProt Q12797); construct: N-Terminally His6-tagged human AspH315–758 (His6-AspH315–758) was produced in E. coli BL21 (DE3) cells; made in house; host or cells: E. coli BL21 (DE3), pET-28a(+) vector; test: SPE-MS AspH inhibition assay (LOPAC screen at fixed 20 μM and IC50 dose-response), hydroxylation of cyclic peptide hFX-CP101–119; assay type: biochemical; details: LOPAC compound at fixed 20 uM; substrate conversion, plate 1
testReadout: Plate 1 (% conversion) (%)
Dear colleague, please return just the value in %, with no unit written.

compound	reported
CC1CNc2c(cccc2S(=O)(=O)N[C@@H](CCCNC(=N)N)C(=O)N2CC[C@@H](C)C[C@@H]2C(=O)O)C1 (some centres unmarked) [Argatroban monohydrate]	38.54
Br.CN1Cc2sccc2C(c2ccc(O)c(O)c2)C1 (centres unmarked) [SKF-89145 hydrobromide]	9.43
CC(=O)O[C@]1(C(C)=O)CC[C@H]2[C@@H]3C=C(Cl)C4=CC(=O)[C@@H]5C[C@@H]5[C@]4(C)[C@H]3CC[C@@]21C [Cyproterone acetate]	39.13
O=C(O)C1=CC(=C(c2ccc(O)c(C(=O)O)c2)c2ccc(O)c(C(=O)O)c2)C=CC1=O [Aurintricarboxylic acid, reference compound]	1.01

Ask: Find the recorded Plate 1 (% conversion) belonging to CC(C)(Oc1ccc(C2CC2(Cl)Cl)cc1)C(=O)O (centres unmarked) [Ciprofibrate] and report it.
Reply: 36.08

Ask: Try O=c1cc(-c2ccc(O)cc2)oc2cc(O)cc(O)c12 [Apigenin, reference compound] next.
Reply: 3.68

Ask: Try Nc1ncnc2c1ncn2C1CCCC1 [9-cyclopentyladenine] next.
Reply: 34.88

Ask: Try NC(=O)N1c2ccccc2C=Cc2ccccc21 [Carbamazepine] next.
Reply: 35.63

* * *

target: His6-AspH315–758 (human aspartate/asparagine-β-hydroxylase, AspH) (Homo sapiens); construct: N-Terminally His6-tagged human AspH315–758 (His6-AspH315–758) was produced in E. coli BL21 (DE3) cells; made in house; host or cells: E. coli BL21 (DE3), pET-28a(+) vector; experiment: SPE-MS AspH inhibition assay (LOPAC screen at fixed 20 μM and IC50 dose-response), hydroxylation of cyclic peptide hFX-CP101–119; type: biochemical
testReadout: Plate 1 (% inhibition) (%)
Dear colleague, please return just the value in %, with no unit written.

Please review the entries below; each comes with its answer.
compound	Plate 1 (% inhibition) / %
CCCCS(=N)(=O)CCC(N)C(=O)O (racemic) [DL-Buthionine-[S,R]-sulfoximine]	4.80
COc1cc2c(c(OC)c1OC)-c1ccc(OC)c(=O)cc1[C@@H](NC(C)=O)CC2	-5.00
NC(N)=NOCC[C@H](N)C(=O)O.O=S(=O)(O)O [L-Canavanine sulfate]	-6.73
CCN(CC)CCCC(C)Nc1ccnc2cc(Cl)ccc12 (stereo not drawn) [Chloroquine diphosphate]	-8.09
Cc1cc(NC(=O)Nc2ccc3c(ccn3C)c2)sn1	-5.45
CC(=O)NCCc1c[nH]c2ccc(O)cc12 [N-Acetyl-5-hydroxytryptamine]	3.61
Cl.NC1C=CC=C(C(=O)O)C1 (stereo not drawn) [Gabaculine hydrochloride]	5.88
Oc1cc(-c2ccccc2)nc2nc(Cl)ccc12	-9.52

Ask: Find the recorded Plate 1 (% inhibition) belonging to NC(CCP(=O)(O)O)C(=O)O (racemic) [(±)-2-Amino-4-phosphonobutyric acid] and report it.
Reply: -5.48
